- ASSAYED SYSTEM: Cytochrome P450 2C19 (Homo sapiens)
- PROTOCOL DESCRIPTION: blockers of cytochrome P450 2C19 activity – biochemical, luminescence, ADME assay, primary screen (AID 778)
- TEST CONTEXT: CYP2C19 Supersomes, luciferin-H EGE luminescence, 30 min; at 5 µM
Out of some 96,000 compounds screened, about 20,000 (21%) were called active.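 Rule for the calls: active = CYP2C19 inhibition above a set limit at 5 µM in the primary screen (cut at about 50% in these data); inactive = the rest.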 The list is a sample of the results.
Answer with one of the outcomes true for active, false for inactive

# count of solved cases: 3
MOLECULE	ASSAYED SYSTEM	ASSIGNED CATEGORY
O=C(NC1CCCCC1)C1CCCN(S(=O)(=O)c2cccs2)C1 (stereo unspecified)	Cytochrome P450 2C19 (Homo sapiens)	false
O=C(NCc1ccccc1)C1CCCN(S(=O)(=O)c2cccs2)C1 (stereo unspecified)	Cytochrome P450 2C19 (Homo sapiens)	true
O=C(NCc1ccc2c(c1)OCO2)C1CCCN(S(=O)(=O)c2cccs2)C1 (stereo unspecified)	Cytochrome P450 2C19 (Homo sapiens)	false

Lookup: I'd appreciate the recorded outcome for `O=C(Cc1ccc(S(=O)(=O)N2CCCC2)s1)NC1CCCCCC1` from this test.
Found: false

Lookup: Next record, please: `O=C(c1cccnc1NCc1ccccc1)N1CCOCC1`
Found: false

Lookup: Next record, please: `CC1(C)CC(=O)c2sc(N)nc2C1`
Found: false
